# Tmax values compiled below
Experiment: Pharmacokinetics in SD rats, single dose intragastric and intravenous
Format: in vivo
Details: male, rat, plasma, oral administration, 10 mg/kg, read-out: Time to peak concentration tmax
Number plus unit, in that order.

>  <GIVEN SMILES>
COc1cccc2c3c([nH]c12)CN(CC[C@H]1CC[C@H](NC(=O)N(C)C)CC1)CC3

>  <Tmax>
190 min

$$$$
>  <GIVEN SMILES>
COc1cccc2c3c(oc12)CN(CC[C@H]1CC[C@H](NC(=O)N(C)C)CC1)CC3

>  <Tmax>
50 min

$$$$
>  <GIVEN SMILES>
COc1cccc2c1cc1n2CCN(CCCCOc2ccc3c(c2)NC(=O)CC3)C1

>  <Tmax>
19.8 min

$$$$
>  <GIVEN SMILES>
COc1cccc2c1cc1n2CCN(CC[C@H]2CC[C@H](NC(=O)N(C)C)CC2)C1

>  <Tmax>
120 min

$$$$

Give the measured Tmax of "COc1cccc2c1cc1n2CCN(CCCCOc2ccc3ccc(=O)[nH]c3c2)C1" .
15 min

====

Target: dopamine D2 receptors (Homo sapiens (Human))
Experiment: Dopamine D2 receptor radioligand competition binding assay ([3H]-Methylspiperone)
Conditions: [3H]-Methylspiperone 0.3 to 0.5 nM, 293T membranes; read-out: Affinity Ki
Protocol: The affinity of the compounds of the present disclosure for dopamine D2 receptors was determined by a radioligand competition binding assay. In the first step, a cell membrane component containing specific dopamine D2 receptors was prepared. A 10 cm culture dish was used for transfection with […] of dopamine D2 receptors and 40 μL of polyethylenimine (PEI hereafter). […]
TEST READOUT: log10(Ki) (log10 of the value in nM)
Answers are given as log10 of Ki in nM.

Sample records with log10(Ki):
>  <MOLECULE>
COc1cccc2c3c([nH]c12)CN(CCCOc1ccc2ccc(=O)[nH]c2c1)CC3

>  <EXPERIMENTAL TARGET>
dopamine D2 receptors (Homo sapiens (Human))

>  <NUMERIC RESULT>
2.45

$$$$
>  <MOLECULE>
CCOc1cccc2c3c([nH]c12)CN(CCCOc1ccc2c(c1)NC(=O)CC2)CC3

>  <EXPERIMENTAL TARGET>
dopamine D2 receptors (Homo sapiens (Human))

>  <NUMERIC RESULT>
2.42

$$$$
>  <MOLECULE>
COc1cccc2c3c(oc12)CN(CCNC(=O)C1CCC(F)(F)CC1)CC3

>  <EXPERIMENTAL TARGET>
dopamine D2 receptors (Homo sapiens (Human))

>  <NUMERIC RESULT>
2.43

$$$$
>  <MOLECULE>
COc1cccc2c3c([nH]c12)CN(CC[C@H]1CC[C@H](NC(=O)N(C)C)CC1)CC3

>  <EXPERIMENTAL TARGET>
dopamine D2 receptors (Homo sapiens (Human))

>  <NUMERIC RESULT>
0.43

$$$$
>  <MOLECULE>
CC(C)Oc1cccc2c3c(oc12)CN(CC[C@H]1CC[C@H](NC(=O)N(C)C)CC1)CC3

>  <EXPERIMENTAL TARGET>
dopamine D2 receptors (Homo sapiens (Human))

>  <NUMERIC RESULT>
2.97

$$$$
>  <MOLECULE>
COc1cccc2c3c([nH]c12)CN(CCC1CC(NC(=O)N(C)C)C1)CC3 (stereo not drawn)

>  <EXPERIMENTAL TARGET>
dopamine D2 receptors (Homo sapiens (Human))

>  <NUMERIC RESULT>
1.37

$$$$
>  <MOLECULE>
COc1cccc2c3c(oc12)CN(CC[C@H]1CC[C@H](NC(=O)N(C)C)CC1)CC3

>  <EXPERIMENTAL TARGET>
dopamine D2 receptors (Homo sapiens (Human))

>  <NUMERIC RESULT>
2.64

$$$$
>  <MOLECULE>
COc1cccc2c3c(oc12)CN(CC[C@H]1CC[C@H](NS(C)(=O)=O)CC1)CC3

>  <EXPERIMENTAL TARGET>
dopamine D2 receptors (Homo sapiens (Human))

>  <NUMERIC RESULT>
3.24

$$$$
>  <MOLECULE>
COc1cccc2c3c(oc12)CN(CCNC(=O)C1CCOCC1)CC3

>  <EXPERIMENTAL TARGET>
dopamine D2 receptors (Homo sapiens (Human))

>  <NUMERIC RESULT>
2.88

$$$$
>  <MOLECULE>
CCOc1cccc2c3c([nH]c12)CN(CCCCOc1ccc2ccc(=O)[nH]c2c1)CC3

>  <EXPERIMENTAL TARGET>
dopamine D2 receptors (Homo sapiens (Human))

>  <NUMERIC RESULT>
1.90

$$$$

Test system dopamine D2 receptors (Homo sapiens (Human)); read-out log10(Ki); what value for "COc1cccc2c1cc1n2CCN(CCNC(=O)C2CCOCC2)C1" ?
2.38

Same question for "COc1cccc2c3c([nH]c12)CN(CCCCOc1ccc2ccc(=O)[nH]c2c1)CC3" please.
2.56

Same question for "CCOc1cccc2c3c(oc12)CN(CCCCOc1ccc2c(c1)NC(=O)CO2)CC3" please.
2.18

Same question for "COc1cccc2c1cc1n2CCN(C/C=C/COc2ccc3ccc(=O)[nH]c3c2)C1" please.
2.64

Same question for "COc1cccc2c1nc1n2CCN(CC[C@H]2CC[C@H](NC(=O)N(C)C)CC2)C1" please.
1.23

Same question for "COc1cccc2c1cc1n2CCN(CCCCOc2ccc3ccc(=O)[nH]c3c2)C1" please.
2.60

Same question for "CCOc1cccc2c3c(oc12)CN(CCCCN1C(=O)CC(C)(C)CC1=O)CC3" please.
2.85

Same question for "CCOc1cccc2c3c(oc12)CN(CC1(O)CCCCC1)CC3" please.
2.01

====

Biological target: dopamine D2 receptors (Homo sapiens (Human), UniProt P14416)
Sequence (P14416 whole entry): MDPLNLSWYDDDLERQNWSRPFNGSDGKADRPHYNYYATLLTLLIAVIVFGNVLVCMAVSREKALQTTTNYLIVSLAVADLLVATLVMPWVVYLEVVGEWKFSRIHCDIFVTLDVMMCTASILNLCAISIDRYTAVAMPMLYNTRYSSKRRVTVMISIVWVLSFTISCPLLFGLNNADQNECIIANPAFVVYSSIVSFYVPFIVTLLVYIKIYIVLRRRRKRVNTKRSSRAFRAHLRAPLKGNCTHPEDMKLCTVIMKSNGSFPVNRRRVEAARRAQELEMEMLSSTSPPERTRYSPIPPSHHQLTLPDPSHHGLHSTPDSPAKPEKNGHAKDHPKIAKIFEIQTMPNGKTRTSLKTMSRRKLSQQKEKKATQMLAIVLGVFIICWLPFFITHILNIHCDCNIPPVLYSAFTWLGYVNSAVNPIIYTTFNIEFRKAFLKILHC
Assay: Dopamine D2 receptor β-arrestin2 BRET (recruitment)
Type: cell-based
Conditions: read-out: β-arrestin2 BRET pEC50 ± SEM (converted)
TEST READOUT: EC50 (nM)
Write the answer as a number in nM, unit excluded.

>  <MOLECULE>
COc1cccc2c1cc1n2CCN(CCCCOc2ccc3c(c2)NC(=O)CC3)C1 [I-C2]

>  <EXPERIMENTAL TARGET>
dopamine D2 receptors (Homo sapiens (Human), UniProt P14416)

>  <UNIT SYMBOL>
nM

>  <EC50>
66.1

$$$$
>  <MOLECULE>
COc1cccc2c3c(oc12)CN(CC[C@H]1CC[C@H](NS(C)(=O)=O)CC1)CC3 [I-A13]

>  <EXPERIMENTAL TARGET>
dopamine D2 receptors (Homo sapiens (Human), UniProt P14416)

>  <UNIT SYMBOL>
nM

>  <EC50>
0.832

$$$$
>  <MOLECULE>
COc1cccc2c3c(oc12)CN(CC[C@H]1CC[C@H](NC(=O)N(C)C)CC1)CC3 [I-A12]

>  <EXPERIMENTAL TARGET>
dopamine D2 receptors (Homo sapiens (Human), UniProt P14416)

>  <UNIT SYMBOL>
nM

>  <EC50>
8.13

$$$$
>  <MOLECULE>
COc1cccc2c1cc1n2CCN(CC[C@H]2CC[C@H](NC(=O)N(C)C)CC2)C1 [I-C7]

>  <EXPERIMENTAL TARGET>
dopamine D2 receptors (Homo sapiens (Human), UniProt P14416)

>  <UNIT SYMBOL>
nM

>  <EC50>
195

$$$$
>  <MOLECULE>
COc1cccc2c3c([nH]c12)CN(CCCCOc1ccc2ccc(=O)[nH]c2c1)CC3 [I-B1]

>  <EXPERIMENTAL TARGET>
dopamine D2 receptors (Homo sapiens (Human), UniProt P14416)

>  <UNIT SYMBOL>
nM

>  <EC50>
12

$$$$
>  <MOLECULE>
COc1cccc2c1nc1n2CCN(CCCCOc2ccc3c(c2)NC(=O)CC3)C1 [I-D2]

>  <EXPERIMENTAL TARGET>
dopamine D2 receptors (Homo sapiens (Human), UniProt P14416)

>  <UNIT SYMBOL>
nM

>  <EC50>
69.2

$$$$

Kindly review the next molecule as well.
Give the measured EC50 of COc1cccc2c3c([nH]c12)CN(CC[C@H]1CC[C@H](NC(=O)N(C)C)CC1)CC3 [I-B7] .
0.107

====

# EC50 values compiled below
Biological target: dopamine D2 receptors (Homo sapiens (Human), UniProt P14416)
Test: Dopamine D2 receptor Gαi1 BRET (G protein trimer dissociation)
Format: cell-based
Conditions: unit printed only in Cariprazine cell, read-out: Gαi1 BRET EC50
Write the answer as a number in nM, unit excluded.

>  <COMPOUND>
CCOc1cccc2c3c(oc12)CN(CCNC(=O)C1CCCCCC1)CC3

>  <NUMERIC RESULT>
12.9

$$$$
>  <COMPOUND>
COc1cccc2c3c(oc12)CN(C/C=C/COc1ccc2ccc(=O)[nH]c2c1)CC3

>  <NUMERIC RESULT>
61.3

$$$$
>  <COMPOUND>
COc1cccc2c3c(oc12)CN(CCCCn1ncc(=O)n(C)c1=O)CC3

>  <NUMERIC RESULT>
56

$$$$
>  <COMPOUND>
COc1cccc2c1nc1n2CCN(CCCOc2ccc3ccc(=O)[nH]c3c2)C1

>  <NUMERIC RESULT>
130

$$$$
>  <COMPOUND>
COc1cccc2c1cc1n2CCN(C/C=C/COc2ccc3c(c2)NC(=O)CC3)C1

>  <NUMERIC RESULT>
276

$$$$

Give the measured EC50 of "COc1cccc2c1cc1n2CCN(CC2(O)CCCCC2)C1" .
23.4

Same question for "CCOc1cccc2c3c(oc12)CN(CC1(O)CCCCC1)CC3" please.
32.5

Same question for "COc1cccc2c1cc1n2CCN(CCCCOc2ccc3c(c2)NC(=O)CC3)C1" please.
46.3

Same question for "COc1cccc2c3c([nH]c12)CN(CCCOc1ccc2c(c1)NC(=O)CC2)CC3" please.
43.6

Same question for "COc1cccc2c3c([nH]c12)CN(CCCCOc1ccc2ccc(=O)[nH]c2c1)CC3" please.
233
